tested on: NCI/ADR-RES ovarian; assay: NCI-60 one-dose screen, 48 h; settings: 10 µM unless noted
Compounds without any hit were thinned out: in the full panel of roughly 83,000, 20% have a hit. Calls of active or inactive are those of the source. Rule for the calls: active = growth percent below 10; inactive = the rest.
Outcomes: TRUE for active, FALSE for inactive

[
  {
    "compound": "C/C=C(\\C)C(C(=O)NC1CCCCC1)N(C(=O)C1CCc2cc(F)ccc2O1)c1ccc(Cl)cc1 (stereo not given)",
    "class_assignment": "FALSE"
  },
  {
    "compound": "CCCCNC(=O)Oc1ccc(/C(=C(\\C)c2ccccc2)c2ccc(OCCN(CC)CC)cc2)cc1",
    "class_assignment": "FALSE"
  },
  {
    "compound": "COc1ccc(S(=O)(=O)Nc2cc(/C=C\\c3cc(OC)c(OC)c(OC)c3)cc(OC)c2OC)cc1",
    "class_assignment": "FALSE"
  },
  {
    "compound": "COc1cc(/C(C#N)=C/c2ccc3c(c2OC)OCO3)cc2c1OCO2",
    "class_assignment": "TRUE"
  },
  {
    "compound": "O=C(C1=Cc2cc3ccccc3n2Cc2cnnn21)c1ccccc1",
    "class_assignment": "FALSE"
  }
]
